The molecules listed here are annotated with their melting point.

molecule | melting point
CCn1nc(-c2c(-c3ccccc3)nn3ccc(OC)cc23)ccc1=O [Example 116] | 148 to 149 °C

// field: melting point; key: CC(C)n1nc(-c2c(-c3ccccc3)nn3ccc(N4CCN(Cc5ccccc5)CC4)cc23)ccc1=O [Example 105] ; value = 136 to 138 °C

Sure, the documented melting point for CC(C)n1nc(-c2c(-c3ccccc3)nn3ccc(OCC(=O)OCc4ccccc4)cc23)ccc1=O [Example 32] is 174 to 174.5 °C

Notebook: CCOc1ccn2nc(-c3ccccc3)c(-c3ccc(=O)n(C(C)C)n3)c2c1 [Example 26] , melting point read as 181 to 182 °C

====

Reported melting point by item:

Use the examples below as a reference point.
line_notation | observed_measurement
COc1cccn2nc(-c3ccccc3)c(-c3ccc(=O)n(C(C)C)n3)c12 | 185 to 186 °C
CCN(CC)C(=O)c1ccn2nc(-c3ccccc3)c(-c3ccc(=O)n(C(C)C)n3)c2c1 | 157 to 158 °C
CC(C)n1nc(-c2c(-c3ccccc3)nn3ccc(OCC(=O)Nc4ccccc4)cc23)ccc1=O | 208 to 209 °C
CC(C)n1nc(-c2c(-c3ccccc3)nn3ccc(Oc4ccccc4)cc23)ccc1=O | 181 to 182 °C
CC(C)CNC(=O)COc1ccn2nc(-c3ccccc3)c(-c3ccc(=O)n(C(C)C)n3)c2c1 | 167.5 to 168.5 °C
CCCOc1cccn2nc(-c3ccccc3)c(-c3ccc(=O)n(C(C)C)n3)c12 | 176 to 177 °C

Form: compound = `CC(C)n1nc(-c2c(-c3ccccc3)nn3ccc(N4CCN(S(=O)(=O)c5ccccc5)CC4)cc23)ccc1=O` ; melting point = 219 to 220 °C

So, `CCCOc1ccn2nc(-c3ccccc3)c(-c3ccc(=O)n(C(C)C)n3)c2c1` ? Its melting point was 161.5 to 162.5 °C

====

Here the recorded melting point is given for each entry.

Here is how some molecules turned out for melting point.
line_notation | endpoint_label | observed_measurement
CC(C)n1nc(-c2c(-c3ccccc3)nn3ccc(OCCN4[C@H](C)COC[C@@H]4C)cc23)ccc1=O | melting point | 145 to 146 °C
CC(C)n1nc(-c2c(-c3ccccc3)nn3ccc(C(=O)N4CCCC4)cc23)ccc1=O | melting point | 189 to 190 °C
CC(C)n1nc(-c2c(-c3ccccc3)nn3ccc(N4CCN(C)CC4)cc23)ccc1=O | melting point | 170 to 171 °C
COc1ccn2nc(-c3ccccc3)c(-c3ccc(=O)n([C@@H]4CCOC4)n3)c2c1 | melting point | 194 to 195 °C
CC(C)n1nc(-c2c(-c3ccccc3)nn3ccc(Oc4ccncc4)cc23)ccc1=O | melting point | 218.5 to 219.5 °C
CCOCCNC(=O)c1ccn2nc(-c3ccccc3)c(-c3ccc(=O)n(C(C)C)n3)c2c1 | melting point | 149 to 150 °C

Kindly note the recorded melting point for `CC(C)n1nc(-c2c(-c3ccccc3)nn3ccc(C(=O)NCc4ccccn4)cc23)ccc1=O` , which is 193 to 194 °C

Entry `CC(C)n1nc(-c2c(-c3ccccc3)nn3ccc(O)cc23)ccc1=O` ; melting point = > 250 °C

====

endpoint_label: melting point

Measured melting point of `CC(C)n1nc(-c2c(-c3ccccc3)nn3ccc(N4CCN(C(=O)c5ccccc5)CC4)cc23)ccc1=O` : 124 to 126 °C

Note to self: melting point recorded for `CC(C)n1nc(-c2c(-c3ccccc3)nn3ccc(NC(=O)c4ccccc4)cc23)ccc1=O` was 266 to 267 °C

Form: molecule = `Nc1cccc2c(-c3ccc(=O)[nH]n3)c(-c3ccccc3)nn12` ; melting point = 157 to 159 °C

In plain terms, `CC(C)n1nc(-c2c(-c3ccccc3)nn3ccc(OCCN4CCOCC4)cc23)ccc1=O` has a documented melting point of 160 to 162 °C

Lookup result for `CC(=O)N1CCN(c2ccn3nc(-c4ccccc4)c(-c4ccc(=O)n(C(C)C)n4)c3c2)CC1` ; measured melting point: 148 to 149 °C

# molecule `COc1ccn2nc(-c3ccccc3)c(-c3ccc(=O)[nH]n3)c2c1` ; its melting point = 245.5 to 247 °C
